B1: KLHDC10 (parent)
chain: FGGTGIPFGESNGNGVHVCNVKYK

- Variants of: B1
- assay info: protein stability index of a GFP-peptide fusion (GPS, HEK-293T) (PSI 1-6); higher = more stable;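 note: lentivirally expressed fusions sorted by FACS into six bins by GFP to DsRed ratio, PSI derived from sequencing read proportions per bin multiplied by bin number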
- setup conditions: c terminus: a fixed tail appended
Rule: protein stability index of 2 or more gives criterion met; anything lower gives criterion not met.

Please review the following examples before continuing.
{"chain sequence": "FGGYGIPFGESNGNGVHVCNVKYK", "classification": "criterion not met"}
{"chain sequence": "FGGTGIPFGESNTNGVHVCNVKYK", "classification": "criterion met"}
{"chain sequence": "FGGTGHPFGESNGNGVHVCNVKYK", "classification": "criterion met"}
{"chain sequence": "FGGTGIPFGESNGYGVHVCNVKYK", "classification": "criterion not met"}
{"chain sequence": "FGGTGIPFGESNGNAVHVCNVKYK", "classification": "criterion not met"}

Given FAGTGIPFGESNGNGVHVCNVKYK , state whether its protein stability index is at least 2.
criterion met

Please tell me: is the variant FGGTGIPFGESNGNGVHVCNVNYK at or over 2 in terms of protein stability index?
criterion not met

Quick check: does EGGTGIPFGESNGNGVHVCNVKYK have protein stability index greater than or equal to 2?
criterion met

Tell me whether protein stability index is at least 2 here: FGGTGIPFGEQNGNGVHVCNVKYK
criterion met

Given FGGTGIPFGESNGNGVHFCNVKYK , state whether its protein stability index is at least 2.
criterion met
